Study Conditions: in n-propanol, 313.15 K
Value Kind: solubility (mole fraction)

# query: solubility (mole fraction) of entry COC(=O)Nc1nc2ccc(C(=O)c3ccc(F)cc3)cc2[nH]1
3.39e-05

====

Study Conditions: in n-butanol, 323.15 K
Value Kind: solubility (mole fraction)
Give bare numbers.

# query: solubility (mole fraction) of entry COC(=O)Nc1nc2ccc(C(=O)c3ccc(F)cc3)cc2[nH]1
0.000141

====

Study Conditions: in 2-butanone, 333.15 K
Value Kind: solubility (mole fraction)
Numbers only.

# query: solubility (mole fraction) of entry COC(=O)Nc1nc2ccc(C(=O)c3ccc(F)cc3)cc2[nH]1
0.00248

====

Study Conditions: in ethanol, 318.15 K
Value Kind: solubility (mole fraction)
Give bare numbers.

# query: solubility (mole fraction) of entry COC(=O)Nc1nc2ccc(C(=O)c3ccc(F)cc3)cc2[nH]1
1.41e-05

====

Study Conditions: in isobutanol, 308.15 K
Value Kind: solubility (mole fraction)
One number for each entry.

# query: solubility (mole fraction) of entry COC(=O)Nc1nc2ccc(C(=O)c3ccc(F)cc3)cc2[nH]1
4.61e-05

====

Study Conditions: in DMF, 303.15 K
Value Kind: solubility (mole fraction)

# query: solubility (mole fraction) of entry COC(=O)Nc1nc2ccc(C(=O)c3ccc(F)cc3)cc2[nH]1
0.00116

====

Study Conditions: in isobutanol, 293.15 K
Value Kind: solubility (mole fraction)
Answers are plain numbers.

# query: solubility (mole fraction) of entry COC(=O)Nc1nc2ccc(C(=O)c3ccc(F)cc3)cc2[nH]1
2.13e-05

====

Study Conditions: in DMSO, 328.15 K
Value Kind: solubility (mole fraction)
Numbers only.

# query: solubility (mole fraction) of entry COC(=O)Nc1nc2ccc(C(=O)c3ccc(F)cc3)cc2[nH]1
0.00548

====

Study Conditions: in n-propanol, 323.15 K
Value Kind: solubility (mole fraction)
Answers are plain numbers.

# query: solubility (mole fraction) of entry COC(=O)Nc1nc2ccc(C(=O)c3ccc(F)cc3)cc2[nH]1
5.53e-05

====

Study Conditions: in 1,4-dioxane, 313.15 K
Value Kind: solubility (mole fraction)
Numbers only.

# query: solubility (mole fraction) of entry COC(=O)Nc1nc2ccc(C(=O)c3ccc(F)cc3)cc2[nH]1
0.000195

====

Study Conditions: in water, 298.15 K
Value Kind: solubility (mole fraction)

# query: solubility (mole fraction) of entry COC(=O)Nc1nc2ccc(C(=O)c3ccc(F)cc3)cc2[nH]1
2.12e-07

====

Study Conditions: in 1,4-dioxane, 328.15 K
Value Kind: solubility (mole fraction)
One number for each entry.

# query: solubility (mole fraction) of entry COC(=O)Nc1nc2ccc(C(=O)c3ccc(F)cc3)cc2[nH]1
0.000308

====

Study Conditions: in methanol, 318.15 K
Value Kind: solubility (mole fraction)
Numbers only.

# query: solubility (mole fraction) of entry COC(=O)Nc1nc2ccc(C(=O)c3ccc(F)cc3)cc2[nH]1
8.49e-06

====

Study Conditions: in DMF, 288.15 K
Value Kind: solubility (mole fraction)

# query: solubility (mole fraction) of entry COC(=O)Nc1nc2ccc(C(=O)c3ccc(F)cc3)cc2[nH]1
0.000708

====

Study Conditions: in DMSO, 313.15 K
Value Kind: solubility (mole fraction)
One number for each entry.

# query: solubility (mole fraction) of entry COC(=O)Nc1nc2ccc(C(=O)c3ccc(F)cc3)cc2[nH]1
0.00358
